- System: COLO 205 colon
- protocol_summary: NCI-60 one-dose screen, 48 h
- measurement_parameters: 10 µM unless noted
About 83,000 compounds went through this panel and 20% of them were active in at least one assay; those are over-represented in the sample as a whole. Activity calls are given as the source filed them. The calls were made as follows: active = growth percent below 10; inactive = the rest.
Pick one and only one: active, inactive

Qu. Test call, this compound: OC(c1ccccc1)(c1ccccc1)c1ccccc1-c1ccccc1
Ans. inactive

Qu. Test call, this compound: CN1CCCc2cc(/C=C3/SC(=S)N(CCc4ccc(O)cc4)C3=O)ccc21
Ans. inactive

Qu. Test call, this compound: CCN(CC)S(=O)(=O)c1ccc(S(=O)(=O)N2CCC[C@@H](C(=O)N3CCN(C(=O)OC(C)(C)C)CC3)C2)cc1
Ans. inactive

Qu. Test call, this compound: CCOC(=O)Cn1c(=O)c2c3ccccc3n(C)c2n2nnc(-c3ccccc3)c12
Ans. inactive

Qu. Test call, this compound: Cc1ccc(-c2cc(C(=O)N3N=C(c4ccc(N)cc4)CC3c3ccc(Cl)cc3)c3ccccc3n2)cc1 (centres undefined)
Ans. active

Qu. Test call, this compound: CSCCC(NC(=O)c1ccccc1)C(=O)N/N=C1\S/C(=C/c2ccc(Cl)cc2)C(=O)N1C (centres undefined)
Ans. inactive

Qu. Test call, this compound: S=c1[nH]c2cc(Cl)ccc2o1
Ans. inactive

Qu. Test call, this compound: O=C1CCC(C(=O)NN(c2ccccc2)c2ccccc2)N1 (centres undefined)
Ans. inactive

Qu. Test call, this compound: COc1ccc(OC)c(-c2cn3nc(-c4c[nH]c5ccc(Br)cc45)sc3n2)c1
Ans. inactive

Qu. Test call, this compound: C/C(=C(/c1ccc(Cl)cc1)c1ccc(OCCCN(C)C)cc1)c1ccc(Cl)cc1
Ans. inactive

Qu. Test call, this compound: COc1ccc2c(c1)c(-c1nonc1-c1c[nH]c3ccc(Br)cc13)cn2C
Ans. inactive

Qu. Test call, this compound: CN(C)c1ccc(-c2cc(-c3ccc(Nc4nc(Nc5ccc(Cl)cc5)nc(Nc5ccc(Cl)cc5)n4)cc3)nc(N)c2C#N)cc1
Ans. inactive

Qu. Test call, this compound: C#Cc1cccc(Oc2ccc(NC(=O)CCl)cc2)c1
Ans. inactive

Qu. Test call, this compound: CCCC(O)Cn1ncc(C(=O)OCC)c1NC(=O)NCc1cccc(F)c1 (centres undefined)
Ans. inactive

Qu. Test call, this compound: COc1cc2cc(Oc3ccc(NC(=O)Nc4ccccc4)cc3)c(C)nc2cc1OCCN1CCCCC1
Ans. inactive

Qu. Test call, this compound: Cn1cc(-c2nonc2-c2c[nH]c3ccc(F)cc23)c2cc(Br)ccc21
Ans. inactive

Qu. Test call, this compound: Cn1c(/C=C/[N+](=O)[O-])cc2ccccc21
Ans. inactive

Qu. Test call, this compound: COC(=O)c1nc(-c2ccccc2)oc1S(=O)(=O)N1CCC(C(N)=O)CC1
Ans. inactive

Qu. Test call, this compound: CC[C@H](CC[C@@H](C)[C@H]1CC[C@H]2[C@@H]3CC[C@@H]4CC(=O)/C(=C\c5ccncc5)C[C@]4(C)[C@H]3CC[C@]12C)C(C)C
Ans. inactive

Qu. Test call, this compound: O=C(CN1C(=O)/C(=C/c2ccco2)SC1=S)NCCc1c[nH]c2ccc(F)cc12
Ans. inactive

Qu. Test call, this compound: Cc1nc2ccccc2c(/C=C/c2ccc(C(F)(F)F)cc2)c1C(=O)/C=C/c1ccccc1
Ans. active

Qu. Test call, this compound: CS(=O)(=O)Nc1cncc(-c2ccc3ncnc(Nc4ccc(F)c(Cl)c4)c3c2)c1
Ans. inactive

Qu. Test call, this compound: Oc1c(I)cc(-c2nc3ccccc3s2)cc1CN(Cc1ccccn1)Cc1ccccn1
Ans. inactive

Qu. Test call, this compound: COc1ccc(C2=NN(C(C)=O)C(c3ccc(Oc4ccnc5cc(Cl)ccc45)c(OC)c3)C2)cc1 (centres undefined)
Ans. inactive

Qu. Test call, this compound: O=C1NC(=C(Cl)Cl)/C(=N/S(=O)(=O)NCCc2c[nH]c3ccccc23)N1
Ans. inactive

Qu. Test call, this compound: COCCCOc1cc(C[C@@H](C[C@H](N)[C@@H](O)C[C@H](C(=O)NCC(C)(C)C(N)=O)C(C)C)C(C)C)ccc1OC
Ans. inactive

Qu. Test call, this compound: O=C(Nc1ccccc1O)c1ccccc1Nc1ccnc(C(F)(F)F)c1
Ans. inactive

Qu. Test call, this compound: COc1ccc(/C(C)=C(\c2ccc(Cl)cc2)c2ccc(OCCN3CCCC3)cc2)cc1
Ans. active

Qu. Test call, this compound: CC(C)c1ccc(NC(=O)Nc2ccc(NC(=O)c3ccccc3N)cc2)cc1
Ans. inactive

Qu. Test call, this compound: COc1cccc(/C=C/C(=O)c2cc3c(N)c(C(=O)Nc4cccc(Cl)c4C)sc3nc2C)c1
Ans. active

Qu. Test call, this compound: O=C1Nc2ccc(F)cc2/C1=N/c1nnc(Sc2ccccc2)s1
Ans. inactive

Qu. Test call, this compound: CCN(CC)c1ccc(/C=N\NC(=O)c2cccc(Nc3ccnc(C(F)(F)F)c3)c2)c(O)c1
Ans. active

Qu. Test call, this compound: CCN(CC)CCCNCc1cc(-c2ccccc2)nc2cc(Cl)ccc12
Ans. inactive

Qu. Test call, this compound: COc1ccc2nc(SCC(=O)Nc3ccccc3C)[nH]c2c1
Ans. inactive

Qu. Test call, this compound: CC1(C)CCC(S(=O)(=O)c2ccc3c(c2)/C(=N\O)c2cc(S(=O)(=O)N4CCN(c5ccc(F)cc5O)CC4)ccc2-3)CC1
Ans. active

Qu. Test call, this compound: COc1ccc(C(c2cc(OC)c(OC)c(OC)c2)N2CCCC2)cc1 (centres undefined)
Ans. inactive

Qu. Test call, this compound: Cc1c(Cl)cccc1C(=O)Nc1nc2c(s1)CN(C(=O)Nc1cccc(C(F)(F)F)c1)CC2
Ans. active

Qu. Test call, this compound: CN(Cc1cnc2nc(N)nc(N)c2n1)c1c(Cl)cc(C(=O)NC(CCC(=O)O)C(=O)O)cc1Cl (centres undefined)
Ans. inactive

Qu. Test call, this compound: CCOC(=O)C(=Cc1cccc(C#N)c1)C(=O)OCC
Ans. inactive

* * *

- Tested on: HOP-92 NSCLC
- protocol_summary: NCI-60 one-dose screen, 48 h
- measurement_parameters: 10 µM unless noted
About 83,000 compounds went through this panel and 20% of them were active in at least one assay; those are over-represented in the sample as a whole. Calls of active or inactive are those of the source. The calls were made as follows: active = growth percent below 10; inactive = the rest.
Pick one and only one: active, inactive

Qu. Test call, this molecule: COc1cccc2c(N=NC(=O)c3ccc(S(N)(=O)=O)cc3)c(O)[nH]c12
Ans. inactive

Qu. Test call, this molecule: c1ccc2cc(Cn3c[n+](Cc4ccc5ccccc5c4)c4ccccc43)ccc2c1
Ans. active

Qu. Test call, this molecule: O=C1/C(=C/c2ccccc2[N+](=O)[O-])COc2ccc(O)cc21
Ans. inactive

Qu. Test call, this molecule: COc1cc(C(=O)C(=O)c2cc(OC)c(O)c(OC)c2)cc(OC)c1O
Ans. inactive

Qu. Test call, this molecule: O=C1/C(=C/c2ccc(C(F)(F)F)cc2)COc2ccc(O)c(O)c21
Ans. active

Qu. Test call, this molecule: COc1ccc(C2CC(c3ccc4c(c3)OCO4)=Nc3c(N)ncnc3N2)cc1 (stereo unspecified)
Ans. inactive

* * *

- System: HOP-92 NSCLC
- protocol_summary: NCI-60 one-dose screen, 48 h
- measurement_parameters: 10 µM unless noted
About 83,000 compounds went through this panel and 20% of them were active in at least one assay; those are over-represented in the sample as a whole. Calls of active or inactive are those of the source. The calls were made as follows: active = growth percent below 10; inactive = the rest.
Pick one and only one: 1 (yes) (active), 0 (no) (inactive)

Qu. Test call, this molecule: N#C/C(=C\c1ccc(Br)cc1)c1cc2ccccc2[nH]1
Ans. 0 (no)

Qu. Test call, this molecule: CC(CN)[C@@H]1CC[C@]2(CO)CC[C@]3(C)[C@H](CC[C@@H]4[C@@]5(C)CCC(N)C(C)(C)[C@@H]5CC[C@]43C)[C@@H]12 (stereo not given in full)
Ans. 0 (no)

Qu. Test call, this molecule: COc1ccc(NC(=O)c2sc3nc(C)c(C(O)c4ccccc4)cc3c2N)cc1 (stereo not given)
Ans. 0 (no)

Qu. Test call, this molecule: CNC(=O)c1cc(Oc2ccc3nc(NC(=O)Nc4ccc(Cl)c(Cl)c4)sc3c2)ccn1
Ans. 0 (no)

Qu. Test call, this molecule: S=c1[nH]c2cc(Cl)ccc2o1
Ans. 0 (no)

Qu. Test call, this molecule: CCOc1ccc(NC(=O)c2cc(OC)c(OC)c(OC)c2)cc1
Ans. 0 (no)

Qu. Test call, this molecule: COc1ccc2[nH]cc(-c3nc(-c4cn(C)c5ccncc45)cs3)c2c1
Ans. 0 (no)

Qu. Test call, this molecule: Cc1cc(N2CCN(C)CC2)nc(NCc2cc(Nc3ccnc4cc(Cl)ccc34)ccc2F)n1
Ans. 1 (yes)

Qu. Test call, this molecule: CN1C(=O)N(C)C2C1NC(=S)N2/N=C/C=C/c1ccccc1[N+](=O)[O-] (stereo not given)
Ans. 0 (no)

Qu. Test call, this molecule: COc1ccc(NC(=O)c2sc3nc4c(cc3c2N)CCCC4)cc1
Ans. 0 (no)
